The measurements presented in this section are drawn from patent US11332438B2.

# TEST: Liver microsome stability, mouse
# Type: in vitro ADME
# CONDITIONS_USED: liver microsomes, pH 7.4, Table 2A, read-out: Microsome Stability Mouse t1/2
Please provide measured half-life at 10 μM for the entries that follow.

Fill in: half-life at 10 μM of [2H]C([2H])([2H])N(CC(=O)[O-])C(=N)NC(=O)CCCCCC.[Na+] is ___
15.2 h

Repeat for the following compound: [2H]C([2H])([2H])N(CC(=O)[O-])C(=N)NC(=O)CCCCCCCCCCCC.[Na+]
1.83 h

// next record [2H]C([2H])([2H])N(CC(=O)[O-])C(=N)NC(=O)CCCC/C=C\CCCCCCCCCCC.[Na+]
> 2.42 h

Please give the result for [2H]C([2H])([2H])N1CC(=O)N=C1NC(=O)CCCCCCCCCC too.
< 0.0833 h

What would you report for [2H]C([2H])([2H])N(CC(=O)OCC)/C(=N\C(=O)OC(C)(C)C)NC(=O)CCCCCCCCCC ?
0.0833 h

Repeat for the following compound: [2H]C([2H])([2H])N(CC(=O)[O-])C(=N)NC(=O)CCCCC/C=C\CCCCCCCCCC.[Li+]
1.37 h

Same lookup for [2H]C([2H])([2H])N(CC(=O)[O-])C(=N)NC(=O)CCC/C=C\C/C=C\C/C=C\C/C=C\CCCCC.[Na+] , please.
0.15 h

Then what about the compound [2H]C([2H])([2H])N(CC(=O)[O-])C(=N)NC(=O)CCCCCCC.[Na+] ?
> 2.42 h

Then this compound: [2H]C([2H])([2H])N(CC(=O)[O-])C(=N)NC(=O)CCCCC/C=C\CCCCCCCCCC.[Na+]
> 2.42 h

Please give the result for [2H]C([2H])([2H])N(CC(=O)[O-])C(=N)NC(=O)CCCCCCCC.[Na+] too.
> 2.42 h

For [2H]C([2H])([2H])N(CC(=O)O)C(=NC(=O)OC(C)(C)C)NC(=O)CCCCCCCCCC then?
2.05 h

Likewise for [2H]C([2H])([2H])N(CC(=O)[O-])C(=N)NC(=O)CCCCCCC.[Li+] ?
> 2.42 h

Also Cl.[H]/N=C(/NC(=O)CCCCCCC/C=C\CCCCCCCC)N(CC(=O)OCCCCCCC)C([2H])([2H])[2H] ?
0.117 h

Repeat with [2H]C([2H])([2H])N(CC(=O)[O-])C(=N)NC(=O)CCCCCCC/C=C\CCCCCCCC.[Na+]
1.38 h

# repeat for [2H]C([2H])([2H])N(CC(=O)[O-])C(=N)NC(=O)CCCCCCCCCC.[K+]
1.77 h

Param item: [2H]C([2H])([2H])N(CCO)C(=N)NC(=O)CCCCCCCCCC
< 0.0833 h

Entry to check: [2H]C([2H])([2H])N(CC(=O)[O-])C(=N)NC(=O)CCCCCCCCCC/C=C\CCCCC.[Na+]
0.167 h

Here is the next compound: Cl.[2H]C([2H])([2H])N(CC(=O)OCCCCCCC)C(=N)NC(=O)CCCCCCCCCC
< 0.0833 h

Here is the next compound: [2H]C([2H])([2H])N(CC(=O)O)C(=N)NC(=O)CCCCCCC/C=C\CCCCCC
1.4 h

And the next one, Cl.[2H]C([2H])([2H])N(CC(=O)OCCCCCCC)C(=N)NC(=O)CCCCCCCCCCCC ?
< 0.0833 h

Another compound to look at: [2H]C([2H])([2H])N(CC(=O)O)C(=N)NC(=O)CCCCCCCCCCC
> 2.42 h

Can you handle Cl.[2H]C([2H])([2H])N(CC(=O)OCC)C(=N)NC(=O)CCCCCCCCCC next?
< 0.0833 h

Further, for [2H]C([2H])([2H])N(CC(=O)[O-])C(=N)NC(=O)CCCCCCCCCC.[Na+] ?
> 2.42 h

Also, [2H]C([2H])([2H])N(CC(=O)[O-])C(=N)NC(=O)CCCCCCCC.[Li+] please.
> 2.42 h

Could you do the same for [2H]C([2H])([2H])N(CC(=O)[O-])C(=N)NC(=O)CCCCCCCCCCC.[Na+] , please?
> 2.42 h

# repeat for Cl.[2H]C([2H])([2H])N(CC(=O)OC(C)(C)C)C(=N)NC(=O)CCCCCCCCCC
< 0.0833 h

Now consider [2H]C([2H])([2H])N(CC(=O)O)C(=N)NC(=O)c1cccnc1 .
> 2.42 h

For [2H]C([2H])([2H])N(CC(=O)[O-])C(=N)NC(=O)c1cccnc1.[Na+] then?
> 2.42 h
